assay: NCI Yeast Anticancer Drug Screen. Data for the mec2-1 strain (AID 157); details: S. cerevisiae mec2-1 strain, at 5.0 µM (retest, dose inferred, filed as 0.5), hits give high values
This is part of a sample that, as a whole, favours compounds with a hit. Of some 79,000 tested, about 15% had one in any assay.
metric: growth inhibition (%)
Express the result in % but write the number alone.

The following molecules have reported results that may help.
Q: Param item = Cc1cc(N=Nc2ccccc2)ccc1O ; retrieve measured growth inhibition.
Result: -11

Q: Item C=C1CC[C@@H]2C(C)(C)C(O)CCC2(C)C1COc1ccc2ccc(=O)oc2c1 (stereo partly specified) has what recorded growth inhibition?
Result: -4

Query molecule follows.
Q: Param item = CCCCCCCCC/C=C1\CCC(CN(C)C)C1=O (stereo unspecified) ; retrieve measured growth inhibition.
Result: -36

----------
Test: NCI Yeast Anticancer Drug Screen. Data for the mlh1 rad18 strain (AID 175)
Details: S. cerevisiae mlh1 rad18 strain growth inhibition; at 50.0 µM (retest, dose inferred, filed as 5.0); hits give high values
Method: Growth inhibition of yeast strains with defined genetic alterations is measured as a screen for potential anti-cancer activity. Selected strains with alterations in DNA damage repair or cell cycle control were exposed to compounds and growth inhibition was measured relative to vehicle treated controls. The strain used in this assay is mlh1 rad18
This is part of a sample that, as a whole, favours compounds with a hit. Of some 79,000 tested, about 15% had one in any assay.
Measured growth inhibition by item
# value in %; strip the unit string

Use these answered entries as a reference point.
Q: Which measured growth inhibition value corresponds to CN=S(=O)(OCCCCCCCCCOS(=O)(=NC)c1ccc(C)cc1)c1ccc(C)cc1 (centres undefined) ?
Result: 11

Q: Can you share its growth inhibition? I mean this compound: CC1CCCC(CCN(C)CCC2CCCCC2)CC1 (centres undefined)
Result: 98

Q: Could you share which growth inhibition value was measured for COc1ccc2c(c1)O[C@H]1c3ccc(O)cc3OC[C@@H]21 ?
Result: 53

Q: Need growth inhibition, item Cc1nn(C(=O)c2ccccc2O)c2c1C(c1ccc3ccccc3c1O)SC(N)=N2 (centres undefined)
Result: 98

Q: Given the compound CC12CCC3c4cc(O)ccc4CCC3C1CCC2O (centres undefined) , what is its reported growth inhibition?
Result: 67

Q: Value lookup for growth inhibition; key = CN1CCN=C1c1ccc(NC(=O)Nc2ccc(NC(=O)Nc3ccc(C4=NCCN4C)cc3)cc2)cc1
Result: 83

Others:
Q: Given O=C(C(/C=N\C(=S)Nc1ccccc1Cl)=C(/O)c1ccccc1)c1ccccc1 , state its recorded growth inhibition.
Result: 99

Q: Please give the measured growth inhibition for this compound: O=C1c2ccccc2C(=O)c2cc(S(=O)(=O)Cl)ccc21
Result: 99

Q: Which value of growth inhibition has been reported for CC1=C(C(=O)Nc2ccccc2)C(c2cc(Cl)cc(Cl)c2)C(C(=O)Nc2ccccc2)=C(C)N1 in the records?
Result: -4

Q: Query: growth inhibition; subject: CC(=O)C1=C(C)O/C(=C/c2ccc(Cl)cc2)C1=O
Result: 98

Q: Look up growth inhibition for this compound: Cc1cc(Cl)c2cc(Cc3ccc(Br)cc3)ccc2n1
Result: 15

Q: Given the entry Cc1cc(NC(=S)SCc2ccc(F)cc2)ccc1Br , report its measured growth inhibition.
Result: 98

Q: Fill blank: measured growth inhibition of the compound O=[N+]([O-])c1cccn2nc(C3OC(CO)C(O)C3O)nc12 (centres undefined) is ____.
Result: 3

Q: What value of measured growth inhibition is listed for N=C(N)c1ccc(Nc2ccc(C(=N)N)cc2)cc1 ?
Result: 39

Q: Returns the measured growth inhibition for the input compound. Input: C1=C(c2ccccc2)CCc2ccccc21
Result: 3

Q: Look up growth inhibition for this compound: C/C(=N\O)c1ccc2cc(Br)c3ccccc3c2c1
Result: 98

Q: For Cc1cc(-c2ccc(O)c(C)c2)ccc1O , what is its reported growth inhibition?
Result: 91

Q: Recorded growth inhibition for Cc1cnc(C#N)c(C#N)n1 , please?
Result: 3
